Listed compounds paired with reported cytotoxicity at 70.5 h
Experiment: Human HepG2 cell viability assay in 384 well format
Type: toxicity, cell-based
Parameters: dose 125 nL, time 70.5 hour; concentration not given beside the values
Settings: HepG2 cells, read-out: Inhibition
# output: bare number, implied unit %

[[record]]
compound = "Cc1noc(C)c1CN1CCOCC12CCN(c1nccs1)CC2"
recorded_metric = "cytotoxicity at 70.5 h"
readout_units = "%"
experimental_value = -8.54


*Q* Recorded cytotoxicity at 70.5 h of CC(Nc1cnn(C)c(=O)c1Cl)c1ccc(F)c(F)c1 (stereo not given) , please.
*A* 39.8

*Q* Recorded cytotoxicity at 70.5 h of `COCCN1CCC(CNC(=O)c2cc(Cl)c[nH]2)CC1` , please.
*A* -11.1

*Q* Recorded cytotoxicity at 70.5 h of `Cc1ccc(CN2CCc3ncnc(-c4ccc(F)cc4)c3CC2)o1` , please.
*A* -14.6

*Q* Recorded cytotoxicity at 70.5 h of `Cc1nc(CCCC(=O)Nc2cccc(N3CCNC3=O)c2)cs1` , please.
*A* 0.608

*Q* Recorded cytotoxicity at 70.5 h of `Cc1ccc(C(=O)N2C[C@@H]3CC[C@H](C2)N(Cc2ccccc2)C3)cn1` , please.
*A* 17.8

*Q* Recorded cytotoxicity at 70.5 h of O=C(O)c1cccc(CN2CCCC(Cc3ccn[nH]3)C2)c1 (stereo not given) , please.
*A* -10.2

*Q* Recorded cytotoxicity at 70.5 h of `COCCN(CCOC)C(=O)c1ccc(Cn2nc(C)cc2C)cc1` , please.
*A* 7.43

*Q* Recorded cytotoxicity at 70.5 h of COCCN1CCCC1(C)c1nc(C)cc(N)n1 (stereo not given) , please.
*A* 0.23

*Q* Recorded cytotoxicity at 70.5 h of `CC(C)c1nn(C)cc1CNCc1cccc(N(C)C)c1` , please.
*A* 6.7

*Q* Recorded cytotoxicity at 70.5 h of CC(NC(=O)NCCNc1ncccn1)c1cccs1 (stereo not given) , please.
*A* 1.09

###

Assay: Human HepG2 cell viability assay in 384 well format
Assay type: toxicity, cell-based
Set-up: dose 125 nL, time 70.5 hour; concentration not given beside the values
Settings: HepG2 cells, read-out: Inhibition
Recorded metric: cytotoxicity at 70.5 h (%)
# output: bare number, implied unit %

Illustrative cases are given below, each with its answer.
[[record]]
compound = "O=C(c1cccc2cccnc12)N1CC[C@@]2(CCCO2)[C@@H](O)C1"
readout_units = "%"
experimental_value = 74.5

[[record]]
compound = "CCn1ccnc1CN1CCCN(C(=O)Cc2ccc(F)cc2)CC1"
readout_units = "%"
experimental_value = 17.5


*Q* Recorded cytotoxicity at 70.5 h of Fc1cc(Cl)cnc1N1CCCC(c2nccn2CC2CC2)C1 (configuration not stated) , please.
*A* 22.7

*Q* Recorded cytotoxicity at 70.5 h of `OCc1nnn2c1CN(Cc1cccnc1)CCC2` , please.
*A* -115

*Q* Recorded cytotoxicity at 70.5 h of Cc1nn(C)c(Oc2ccccc2)c1CNC1CCOc2ccccc21 (configuration not stated) , please.
*A* -1.6

*Q* Recorded cytotoxicity at 70.5 h of `N#Cc1ccccc1CN1CCc2sccc2C1` , please.
*A* -8.96

*Q* Recorded cytotoxicity at 70.5 h of `O=C(c1ccccn1)N1CCC(Nc2cccnn2)CC1` , please.
*A* 2.46

*Q* Recorded cytotoxicity at 70.5 h of Cc1cc(C(=O)N2CCCC(C)C2)ccc1NCC(=O)N1CCOCC1 (configuration not stated) , please.
*A* -2.64

*Q* Recorded cytotoxicity at 70.5 h of CCC1CCCN(S(=O)(=O)c2cnn(C)c2)C1 (configuration not stated) , please.
*A* -0.41
